Assay: Determination of oral bioavailability (plasma pharmacokinetics i.v. and p.o.)
Assay type: in vivo, Male CD-1 mice
Conditions: male, CD-1, mouse; mice, 2 mg/kg IV, plasma
Method: Determination of Oral Bioavailability The oral bioavailability of the compound of Example 33 was determined in mice and compared with the bioavailability following intravenous injection using the following protocol. […] N=3 mice per time point with 15 ul plasma per aliquot.
Counter-ions that a name gives are not always drawn.
measurement.name: AUC(0-inf)
Hi, when you answer, please include the unit after the number. Thanks!

Query: Look up AUC(0-inf): CN(C)CCNC(=O)c1ccc(-c2ccc(-c3ccc(Cl)cc3)n2-c2ccccc2C(F)(F)F)cc1 [Example 33, Hydrochloride]
Response: 2100 ng·h/mL

----------
Test system: glioblastoma cell line 905984
Assay: Glioblastoma cancer cell viability, cell line 905984
Format: cell-based
Description: Assay to Measure the Effects of Compounds of the Invention on Glioblastoma Cancer Cell Viability The compound of Example 33 was tested for inhibitory activity against the glioblastoma cell lines in Table 7 below.
Where a name gives a salt, the structure may show the parent alone.
measurement.name: IC50
Hi, when you answer, please include the unit after the number. Thanks!

Query: Look up IC50: CN(C)CCNC(=O)c1ccc(-c2ccc(-c3ccc(Cl)cc3)n2-c2ccccc2C(F)(F)F)cc1 [Example 33, Hydrochloride]
Response: 241 nM

----------
test: Determination of brain exposure following oral dosing in mice; format: in vivo, male CD-1 mice; settings: male, CD-1, mouse, brain, 10 mg/Kg PO, read-out: AUClast (Brain)
Structures can show the parent of a compound that is named as a salt.
measurement.name: AUC(0-t) (ng·h/mL)
# output: bare number, implied unit ng·h/mL

Query: Look up AUC(0-t): CN(C)CCNC(=O)c1ccc(-c2ccc(-c3ccc(Cl)cc3)n2-c2ccccc2C(F)(F)F)cc1 [Example 33, Hydrochloride]
Response: 31900

----------
experiment: Determination of oral bioavailability (plasma pharmacokinetics i.v. and p.o.); assay type: in vivo, Male CD-1 mice; conditions: male, CD-1, mouse; mice, 2 mg/kg IV, plasma
Where a name gives a salt, the structure may show the parent alone.
measurement.name: Cmax (ng/mL)
# output: bare number, implied unit ng/mL

Query: Look up Cmax: CN(C)CCNC(=O)c1ccc(-c2ccc(-c3ccc(Cl)cc3)n2-c2ccccc2C(F)(F)F)cc1 [Example 33, Hydrochloride]
Response: 873

----------
Examples of molecules with documented GI50 follow.
test system: wild-type HeLa cell line
Counter-ions that a name gives are not always drawn.
# output: bare number, implied unit nM

Study these solved cases before continuing.
# molecule, GI50, nM
rows = [
    ("CN(C)CCNC(=O)c1ccc(-c2ccc(-c3ccc(Br)cc3)n2-c2ccccc2C(F)(F)F)c(Cl)c1 [Example 36, hydrochloride]", 120),
    ("CN(C)CCNC(=O)c1ccc(-c2ccc(-c3ccc(Br)cc3)n2-c2cnccc2C(F)(F)F)cc1", 40),
    ("CN(C)CCCNC(=O)c1ccc(-c2ccc(-c3ccc(Br)cc3)n2-c2ccccc2C(F)(F)F)cc1", 130),
]

Let's switch to this molecule now.
Query: Look up GI50: CN(C)CCNC(=O)c1ccc(-c2ccc(-c3ccc(F)nc3)n2-c2ccccc2C(F)(F)F)cc1 [Example 42, hydrochloride]
Response: 130

----------
Measured log10(GI50) (wild-type HeLa cell line)
Where a name gives a salt, the structure may show the parent alone.
Log10 applied to GI50; unit prior to transform: µM.

Study these solved cases before continuing.
# molecule, numeric.value
data = [
    ("CN(C)CCNC(=O)c1cccc(-c2ccc(-c3ccc(Br)cc3)n2-c2ccccc2C(F)(F)F)c1 [Example 2, Hydrochloride]", -0.74),
    ("CN1CC[C@@H](NC(=O)c2ccc(-c3ccc(-c4ccc(Cl)cc4)n3-c3ccccc3C(F)(F)F)cc2)C1 [Example 70, hydrochloride]", -2.30),
    ("CN(C)CCCNC(=O)c1ccc(-c2ccc(-c3ccc(Cl)cc3)n2-c2ccccc2C(F)(F)F)nc1 [Example 62, hydrochloride]", -1.70),
    ("CN(C)CCNC(=O)c1ccc(-c2ccc(-c3ccc(Br)cc3)n2-c2ccccc2C(F)(F)F)cc1 [Example 9, Hydrochloride]", -1.30),
    ("CN(C)CCNC(=O)c1ccc(-c2ccc(-c3ccc(Cl)cc3)n2-c2ccccc2C(F)(F)F)nc1 [Example 61, hydrochloride]", -1.70),
]

Query: State its log10(GI50) on wild-type HeLa cell line: CN(C)CCCOc1ccc(-c2ccc(-c3ccc(Br)cc3)n2-c2ccccc2C(F)(F)F)cc1 [Example 35, hydrochloride]
Response: -0.68

Query: State its log10(GI50) on wild-type HeLa cell line: CN(C)CCNC(=O)c1ccc(-c2ccc(-c3ccccc3)n2-c2ccccc2C(F)(F)F)cc1 [Example 26, hydrochloride]
Response: -0.92

----------
Measured GI50 (HCT116 cells)
Counter-ions that a name gives are not always drawn.
# output: bare number, implied unit nM

Study these solved cases before continuing.
# molecule, unit.label, numeric.value
data = [
    ("O=C(NCCN1CCOCC1)c1ccc(-c2ccc(-c3ccc(Cl)cc3)n2-c2ccccc2C(F)(F)F)cc1 [Example 95, hydrochloride]", "nM", 80),
    ("O=C(c1ccc(-c2ccc(-c3ccc(Cl)cc3)n2-c2ccccc2C(F)(F)F)cc1)N1CCNCC1 [Example 84, hydrochloride]", "nM", 190),
]

Let's switch to this molecule now.
Query: Look up GI50: CN(C)CCNC(=O)Nc1ccc(-c2ccc(-c3ccc(Cl)cc3)n2-c2ccccc2C(F)(F)F)cc1 [Example 90, Hydrochloride]
Response: 500

----------
Structures can show the parent of a compound that is named as a salt.
Measured GI50 (HCT116 cells)
# output: bare number, implied unit nM

Study these solved cases before continuing.
# compound, unit.label, numeric.value
records = [
    ("O=C(NCCN1CCOCC1)c1ccc(-n2ncc(-c3ccc(Cl)cc3)c2-c2ccccc2C(F)(F)F)cc1 [Example 104, hydrochloride]", "nM", 150),
    ("C[C@@H](CNC(=O)c1ccc(-c2ccc(-c3ccc(Cl)cc3)n2-c2ccccc2C(F)(F)F)cc1)N(C)C", "nM", 40),
]

Query: Look up GI50: CN1CCN(C(=O)c2ccc(-c3ccc(-c4ccc(Cl)cc4)n3-c3ccccc3C(F)(F)F)cc2)CC1 [Example 85, hydrochloride]
Response: 490

Query: Look up GI50: CN(C)CCNC(=O)c1ccc(-c2ccc(-c3ccc(Cl)cc3)n2-c2cnccc2C(F)(F)F)c(F)c1 [Example 89, hydrochloride]
Response: 1360

Provenance of the data: patent US11208405B2
